Provenance of the data: paper PMC7266990

# studySystem: An_CBC HapE P88L (Aspergillus nidulans) (UniProt G5EAZ0+Q5B5Z6+Q5AYY8)
# experimentSummary: SPR
# setupConditions: SPR per cited protocol (Gsaller 2016; buffer not given), CBC 3.13-200 nM, 1:1 model with mass transport; SEC: 20 mM Tris/HCl, 150 mM NaCl, 1 mM DTT, pH 7.5
Catalogue of pKd readings, one per entry.
FYI, pKd means -log10 of a concentration in mol per litre.

ACCCGAGCCAATCAGAGCGAAGTGA (double strand) [An_cccA 25 bp SPR duplex] : 5.70

Turning now to a further record.
Incoming: pKd lookup needed for GAATTGACCAATCAGAGGTAGGATG (double strand) [An_cycA 25 bp SPR duplex] , thanks.
Outgoing: 6.94
